# System tested: UniProt P07947
# Sequence (P07947 whole entry, looked up): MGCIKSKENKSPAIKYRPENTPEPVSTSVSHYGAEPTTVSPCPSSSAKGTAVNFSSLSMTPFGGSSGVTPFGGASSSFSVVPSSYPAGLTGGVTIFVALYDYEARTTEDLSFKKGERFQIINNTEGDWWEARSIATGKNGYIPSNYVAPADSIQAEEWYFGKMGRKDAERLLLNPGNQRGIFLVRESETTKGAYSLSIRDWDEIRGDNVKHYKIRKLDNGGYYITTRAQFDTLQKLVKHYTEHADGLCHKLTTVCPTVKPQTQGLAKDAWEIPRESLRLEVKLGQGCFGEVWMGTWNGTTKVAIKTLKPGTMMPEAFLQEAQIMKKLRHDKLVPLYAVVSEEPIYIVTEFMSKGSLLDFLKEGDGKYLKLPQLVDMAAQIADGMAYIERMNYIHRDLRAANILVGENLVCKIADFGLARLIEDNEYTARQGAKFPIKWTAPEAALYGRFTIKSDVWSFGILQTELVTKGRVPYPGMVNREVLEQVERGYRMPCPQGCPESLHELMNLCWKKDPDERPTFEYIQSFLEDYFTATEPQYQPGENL
# Test name: radiometric filter-binding kinase assay
# Assay setup: compound 0.1 µM
Test readout: residual activity (%)

molecular_string=O=C(NCCCNc1nc(Nc2cccc(CN3CCOCC3)c2)ncc1C1CC1)C1CCC1 units=% val=113
molecular_string=Cc1cc(NC(=O)c2cccc(NC(=O)/C=C/CN(C)C)c2)ccc1Nc1nccc(-c2cccnc2)n1 units=% val=87
molecular_string=O=C(N[C@@H](COc1ccc2[nH]c(=O)[nH]c2c1)c1ccccc1)c1cccn(Cc2ccc(F)c(F)c2)c1=O units=% val=104
molecular_string=c1ccc2c(-c3cnn4cc(-c5ccc(N6CCNCC6)cc5)cnc34)ccnc2c1 units=% val=73
molecular_string=Cc1cccc(-c2nn(C(=S)Nc3ccccc3)cc2-c2ccnc3ccccc23)n1 units=% val=106
molecular_string=C=CC(=O)N1CCC[C@@H](n2nc(-c3ccc(Oc4ccccc4)cc3)c3c(N)ncnc32)C1 units=% val=20
molecular_string=C/C(=C1/C(=O)Nc2ccc(NC(N)=O)cc21)c1ccc[nH]1 units=% val=42
molecular_string=O=C(O)c1ccc(-c2c[nH]c3ncc(-c4ccccc4)cc23)cc1C1CCCC1 units=% val=105

====

# System tested: EIF2AK3 (human)
# Test name: radiometric filter-binding kinase assay
# Assay setup: compound 10.0 µM
Test readout: residual activity

compound=O=C(N[C@@H](COc1ccc2[nH]c(=O)[nH]c2c1)c1ccccc1)c1cccn(Cc2ccc(F)c(F)c2)c1=O system_tested="EIF2AK3 (human)" val=96%
compound=Cc1nc(-c2ccc(OCC(C)C)c(C#N)c2)sc1C(=O)O system_tested="EIF2AK3 (human)" val=88%
compound="Nc1cccc2c1CN(C1CCC(=O)NC1=O)C2=O (stereo not given)" system_tested="EIF2AK3 (human)" val=101%
compound=CNc1nc(-c2ccc3c(N)n[nH]c3c2)cc(N2C[C@@H](C(=O)NC3CCCCC3)CC[C@H]2C)n1 system_tested="EIF2AK3 (human)" val=100%
compound=COC(=O)/C=C/C(=O)OC system_tested="EIF2AK3 (human)" val=95%

====

# System tested: AURKB (human)
# Test name: radiometric filter-binding kinase assay
# Assay setup: compound 10.0 µM
Test readout: residual activity (%)

molecular_string=NS(=O)(=O)OC[C@@H]1C[C@@H](n2ccc3c(N[C@H]4CCc5ccccc54)ncnc32)C[C@@H]1O val=93
molecular_string=O=C(N[C@@H](COc1ccc2[nH]c(=O)[nH]c2c1)c1ccccc1)c1cccn(Cc2ccc(F)c(F)c2)c1=O val=64
molecular_string=C=CC(=O)N1CCC[C@@H](n2nc(-c3ccc(Oc4ccccc4)cc3)c3c(N)ncnc32)C1 val=13
molecular_string=Cc1ccc(Sc2cnc(Nc3cccc(Br)n3)s2)cc1C(=O)N1CCN(C(=O)CN)CC1 val=7
molecular_string=NC(=O)c1c(NC(=O)C2CC2)sc2c1CCCC2 val=62
molecular_string=COc1cc2ncn(-c3cc(OCc4ccccc4S(C)(=O)=O)c(C#N)s3)c2cc1OC val=4

====

# System tested: MAPK11 (human) (UniProt Q15759)
# Sequence (Q15759 whole entry, looked up): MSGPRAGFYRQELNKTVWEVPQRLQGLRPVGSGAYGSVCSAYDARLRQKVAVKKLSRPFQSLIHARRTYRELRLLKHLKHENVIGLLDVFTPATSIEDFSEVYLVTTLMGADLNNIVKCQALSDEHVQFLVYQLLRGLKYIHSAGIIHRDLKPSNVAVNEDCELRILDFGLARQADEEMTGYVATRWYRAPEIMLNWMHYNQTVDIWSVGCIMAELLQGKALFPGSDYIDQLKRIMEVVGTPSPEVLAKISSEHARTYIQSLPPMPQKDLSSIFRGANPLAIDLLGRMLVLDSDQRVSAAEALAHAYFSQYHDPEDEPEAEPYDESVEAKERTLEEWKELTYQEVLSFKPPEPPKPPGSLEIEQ
# Test name: radiometric filter-binding kinase assay
# Assay setup: compound 0.01 µM
# residual activity per record follows
Test readout: residual activity (%)

compound="COc1cc(O)c2c(c1)[C@H]1OC1C[C@H](O)[C@H](O)C(=O)/C=C\\C[C@H](C)OC2=O (stereo partly specified)" units=% val=88
compound=CNc1nc(-c2ccc3c(N)n[nH]c3c2)cc(N2C[C@@H](C(=O)NC3CCCCC3)CC[C@H]2C)n1 units=% val=113
compound=C/C(=C1/C(=O)Nc2ccc(NC(N)=O)cc21)c1ccc[nH]1 units=% val=100
compound=O=C(Nc1nc2cc(C(F)(F)F)cc(NC3CC3)n2n1)c1cccnc1 units=% val=106
compound="CNC(=O)C1[C@H]2O[C@@](C)([C@@H]1N)n1c3ccccc3c3c4c(c5c6ccccc6n2c5c31)C(=O)NC4 (stereo partly specified)" units=% val=108
compound=COc1ccc(N(C(=O)Nc2c(C)cccc2C)c2cc(Nc3ccc(N4CCN(C)CC4)cc3)ncn2)c(OC)c1 units=% val=89

====

# System tested: UniProtKB Q9P289
# Sequence (Q9P289 whole entry, looked up): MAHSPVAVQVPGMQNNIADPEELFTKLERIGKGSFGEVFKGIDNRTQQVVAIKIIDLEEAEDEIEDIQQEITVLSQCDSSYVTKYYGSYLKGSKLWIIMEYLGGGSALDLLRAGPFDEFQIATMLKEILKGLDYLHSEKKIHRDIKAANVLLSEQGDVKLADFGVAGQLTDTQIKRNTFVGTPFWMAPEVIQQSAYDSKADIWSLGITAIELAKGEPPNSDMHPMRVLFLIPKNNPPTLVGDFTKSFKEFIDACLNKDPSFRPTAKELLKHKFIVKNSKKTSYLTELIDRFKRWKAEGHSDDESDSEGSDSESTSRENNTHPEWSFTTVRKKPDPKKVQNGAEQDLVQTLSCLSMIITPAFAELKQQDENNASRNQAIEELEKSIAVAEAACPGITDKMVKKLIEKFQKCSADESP
# Test name: radiometric filter-binding kinase assay
# Assay setup: compound 1.0 µM
# residual activity values compiled below
Test readout: residual activity (%)

molecular_string=NS(=O)(=O)OC[C@@H]1C[C@@H](n2ccc3c(N[C@H]4CCc5ccccc54)ncnc32)C[C@@H]1O test_readout="residual activity" val=83
molecular_string=O=C(NOC[C@H](O)CO)c1ccc(F)c(F)c1Nc1ccc(I)cc1Cl test_readout="residual activity" val=103
molecular_string=NCC(=O)Nc1ccc(-n2nc(C(F)(F)F)cc2-c2ccc3c(ccc4ccccc43)c2)cc1 test_readout="residual activity" val=80
molecular_string=O=C(O)c1ccc(-c2c[nH]c3ncc(-c4ccccc4)cc23)cc1C1CCCC1 test_readout="residual activity" val=68
molecular_string=Oc1ccc2ccccc2c1SSc1c(O)ccc2ccccc12 test_readout="residual activity" val=6
molecular_string=Cc1ccc(=O)n(-c2ccccc2)c1 test_readout="residual activity" val=105

====

# System tested: MAPK3 (human) (UniProt P27361)
# Sequence (P27361 whole entry, looked up): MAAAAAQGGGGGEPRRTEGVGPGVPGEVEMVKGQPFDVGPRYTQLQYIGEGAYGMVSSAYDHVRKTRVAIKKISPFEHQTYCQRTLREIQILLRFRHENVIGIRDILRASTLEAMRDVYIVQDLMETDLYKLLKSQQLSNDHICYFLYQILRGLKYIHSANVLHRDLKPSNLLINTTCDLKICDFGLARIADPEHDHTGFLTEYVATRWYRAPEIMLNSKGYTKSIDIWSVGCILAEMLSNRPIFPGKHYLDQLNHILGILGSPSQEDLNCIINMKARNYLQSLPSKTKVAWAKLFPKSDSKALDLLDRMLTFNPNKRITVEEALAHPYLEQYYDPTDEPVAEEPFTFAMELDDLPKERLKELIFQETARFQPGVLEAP
# Test name: radiometric filter-binding kinase assay
# Assay setup: compound 10.0 µM
Test readout: residual activity

compound=CCn1c(-c2nonc2N)nc2cncc(CNC3CCNCC3)c21 test_readout="residual activity" val=97%
compound=O=C(Nc1ccccc1-c1cn2c(CN3CCNCC3)csc2n1)c1cnc2ccccc2n1 test_readout="residual activity" val=117%
compound=Cc1cccc(Nc2nn(C)c3ncnc(N)c23)c1 test_readout="residual activity" val=108%
compound=CCNc1nc(Nc2cc(F)c(C(=O)N3CCOCC3)cc2OC)ncc1C(F)(F)F test_readout="residual activity" val=54%
compound=NCC(=O)Nc1ccc(-n2nc(C(F)(F)F)cc2-c2ccc3c(ccc4ccccc43)c2)cc1 test_readout="residual activity" val=63%
compound=CN1C(=O)[C@@H](Cc2c[nH]c3ccccc23)NC1=S test_readout="residual activity" val=93%
compound=CC(C)(C#N)c1ccc(N2C(=O)OCc3cnc4ccc(-c5cnc6ccccc6c5)cc4c32)cc1 test_readout="residual activity" val=83%
compound=Cc1ccc(=O)n(-c2ccccc2)c1 test_readout="residual activity" val=115%
compound=FC(F)(F)c1ccc(-c2ccc(Oc3cncc4sc(-c5nn[nH]n5)cc34)cc2)cc1 test_readout="residual activity" val=82%
compound="O=C(NOCC(O)CO)c1ccc(F)c(F)c1Nc1ccc(I)cc1Cl (stereo unspecified)" test_readout="residual activity" val=101%
compound="CC1=C(CO)C(=O)O[C@@H]([C@@H](C)[C@H]2CC[C@H]3[C@@H]4C[C@H]5O[C@]56[C@@H](O)C=CC(=O)[C@]6(C)C4CC[C@]23C)C1 (stereo partly specified)" test_readout="residual activity" val=109%
compound=NC(=O)c1cc2c(-c3cccc(-c4ccccc4)c3)cnc(N)c2s1 test_readout="residual activity" val=16%
compound=Cc1ccc2c(c1)C(=O)[C@@]1(O)CCN(c3ccccc3)C1=N2 test_readout="residual activity" val=102%
compound=O=c1c(O)c(-c2ccc(O)c(O)c2)oc2cc(O)c(O)c(O)c12 test_readout="residual activity" val=54%
compound=CCCCCc1ccc(/C=C/[C@H](O)[C@@H](CO)NC)cc1 test_readout="residual activity" val=85%
compound=NC(=O)c1cc(-c2ccnc(NC3CCCCC3)c2)nc(N2CCNCC2)c1 test_readout="residual activity" val=10%
compound=Cc1nc(-c2ccc(OCC(C)C)c(C#N)c2)sc1C(=O)O test_readout="residual activity" val=95%
compound=CCCC(CCC)C(=O)O test_readout="residual activity" val=88%
compound=O=C(N[C@@H](COc1ccc2[nH]c(=O)[nH]c2c1)c1ccccc1)c1cccn(Cc2ccc(F)c(F)c2)c1=O test_readout="residual activity" val=95%
compound=CCOC(=O)c1ccc(N2NC(=O)/C(=C/c3ccc([N+](=O)[O-])o3)C2=O)cc1 test_readout="residual activity" val=103%
compound=N#Cc1c(O)c2c(-c3ccc(-c4ccccc4O)cc3)csc2[nH]c1=O test_readout="residual activity" val=83%

====

# System tested: PRKCZ (human)
# Test name: radiometric filter-binding kinase assay
# Assay setup: compound 10.0 µM
Test readout: residual activity (%)

compound="Nc1cccc2c1CN(C1CCC(=O)NC1=O)C2=O (configuration not stated)" test_readout="residual activity" val=108
compound=Cc1cc(SCc2sc(-c3ccc(C(F)(F)F)cc3)nc2C)ccc1OCC(=O)O test_readout="residual activity" val=74
compound=C[C@H]1CCCC(=O)CCC/C=C/c2cc(O)cc(O)c2C(=O)O1 test_readout="residual activity" val=86
compound=CCNc1nc(Nc2cc(F)c(C(=O)N3CCOCC3)cc2OC)ncc1C(F)(F)F test_readout="residual activity" val=83
compound=NC(=O)c1cc2c(-c3cccc(-c4ccccc4)c3)cnc(N)c2s1 test_readout="residual activity" val=82
compound=CNc1nc(-c2ccc3c(N)n[nH]c3c2)cc(N2C[C@@H](C(=O)NC3CCCCC3)CC[C@H]2C)n1 test_readout="residual activity" val=23
compound=O=C(O)c1ccc(-c2c[nH]c3ncc(-c4ccccc4)cc23)cc1C1CCCC1 test_readout="residual activity" val=87
